tested-system: MAP kinase-activated protein kinase 3 (Homo sapiens) (UniProt Q16644)
Sequence (Q16644 whole entry, looked up): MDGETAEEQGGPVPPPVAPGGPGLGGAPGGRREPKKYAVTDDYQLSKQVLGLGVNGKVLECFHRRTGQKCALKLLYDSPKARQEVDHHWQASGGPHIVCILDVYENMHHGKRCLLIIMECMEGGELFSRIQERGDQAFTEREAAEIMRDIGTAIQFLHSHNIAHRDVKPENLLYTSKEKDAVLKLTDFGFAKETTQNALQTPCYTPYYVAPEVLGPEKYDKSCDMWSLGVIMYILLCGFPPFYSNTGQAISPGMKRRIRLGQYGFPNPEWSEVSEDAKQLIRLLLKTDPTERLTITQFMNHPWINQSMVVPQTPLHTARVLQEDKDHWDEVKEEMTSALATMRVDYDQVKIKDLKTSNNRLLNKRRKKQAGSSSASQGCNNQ
experimental-conditions: at 1 µM
Description: GSK_PKIS: MAPKAPK3 mean inhibition at 1 uM [Nanosyn]
measured-attribute: inhibition (%)
Give bare numbers, in %.

• O=C1NC(=O)C(N2CCc3ccccc32)=C1c1ccc(Cl)cc1 = 10.3
• [O-][S+]1CCN(Cc2ccc(-c3ccc4ncnc(Nc5ccc(OCc6ccccc6)c(F)c5)c4c3)o2)CC1 = 3.94
• CCCN1CCC=C(c2ccc(Nc3nc(Nc4ccccc4C(N)=O)c4cc[nH]c4n3)c(C)c2)C1 = 6.16
• CCn1c(-c2nonc2N)nc2c(N3CCCC3)nccc21 = -1.73

Shifting focus to the molecule that follows.
Record Cc1nnc(-c2ccc(C)c(-c3ccc(C(=O)Nc4cccc(C#N)c4)cc3)c2)o1 . Reported inhibition: 16.3

Hey, just so you know, these numbers are from ChEMBL document CHEMBL1961873.
